system: Scirpus juncoides; assay: Test Example 2: herbicidal effect test by treatment during growing period in paddy rice cultivation (seven days after seeding); type: in vivo; details: 120 g/10a, rated 14 days after treatment, paddy soil pots
readout kind: herbicidal rate, Scirpus juncoides (%)
Lab book: enter the figure in %, no units written.

These solved cases illustrate the format of a correct answer.
* Cc1c(Cc2ccccc2N(S(=O)(=O)C(F)(F)F)S(=O)(=O)C(F)(F)F)c(=O)on1Cc1ccsc1 | 80
* Cc1c(Cc2ccccc2N(S(=O)(=O)C(F)(F)F)S(=O)(=O)C(F)(F)F)c(=O)on1C(C)c1ccsc1 (stereo not shown) | 80
* Cc1c(Cc2ccccc2N(S(=O)(=O)C(F)(F)F)S(=O)(=O)C(F)(F)F)c(=O)on1Cc1cccs1 | 90

Shift focus to the following entry.
# query: herbicidal rate, Scirpus juncoides of entry Cc1c(Cc2ccccc2N(S(=O)(=O)C(F)(F)F)S(=O)(=O)C(F)(F)F)c(=O)on1CCOc1ccccc1 80

====

tested on: broad leaf weeds (Lindernia pyxidaria and Monochoria vaginalis); experiment: Test Example 1: herbicidal effect test by treatment of rice paddy soil (immediately after seeding); type: in vivo; settings: Monochoria vaginalis, 120 g/10a active ingredient, dry weight vs untreated area, 14 days after treatment
readout kind: Herbicidal rate (%) Monochoria vaginalis
State the value, then name its unit.

These solved cases illustrate the format of a correct answer.
- Cc1c(Cc2ccccc2NS(=O)(=O)C(F)(F)F)c(=O)on1Cc1ccc(F)c(F)c1: 100%
- Cc1c(Cc2ccccc2N(S(=O)(=O)C(F)(F)F)S(=O)(=O)C(F)(F)F)c(=O)on1CCc1ccccc1: 100%
- COCC(C)n1oc(=O)c(Cc2ccccc2N(C(=O)CC(C)C)S(=O)(=O)C(F)(F)F)c1C (stereo not shown): 90%

Shift focus to the following entry.
# query: Herbicidal rate (%) Monochoria vaginalis of entry Cc1c(Cc2ccccc2NS(=O)(=O)C(F)(F)F)c(=O)on1C1CCc2ccccc21 (stereo not shown) 90%

====

The reader will find reported herbicidal rate, Chenopodium album values listed item by item below.
system: Chenopodium album; test: Test Example 3: herbicidal effect test by treatment of dry field farming soil (one day after seeding); assay type: in vivo; details: 120 g/10a active ingredient, evaluated 14 days after treatment

- CCN(CC)C(=O)n1oc(=O)c(Cc2ccccc2NS(=O)(=O)C(F)(F)F)c1C: 60%
- CCC(C)n1oc(=O)c(Cc2ccccc2N(C(=O)Cc2ccccc2)S(=O)(=O)C(F)(F)F)c1C (stereo not shown): 90%
- Cc1c(Cc2ccccc2N(S(=O)(=O)C(F)(F)F)S(=O)(=O)C(F)(F)F)c(=O)on1CC1(C)CO1 (stereo not shown): 60%
- CCC(C)Cn1oc(=O)c(Cc2ccccc2NS(=O)(=O)C(F)(F)F)c1C (stereo not shown): 80%
- CCCCC(CC)Cn1oc(=O)c(Cc2ccccc2NS(=O)(=O)C(F)(F)F)c1C (stereo not shown): 50%

# query: herbicidal rate, Chenopodium album of entry COCC(C)n1oc(=O)c(Cc2ccccc2N(C(=O)OC(C)C)S(=O)(=O)C(F)(F)F)c1C (stereo not shown) 90%

# query: herbicidal rate, Chenopodium album of entry CCC(C)n1oc(=O)c(Cc2ccccc2N(C(=O)c2ccccn2)S(=O)(=O)C(F)(F)F)c1C (stereo not shown) 90%

====

system: Chenopodium album; assay: Test Example 3: herbicidal effect test by treatment of dry field farming soil (one day after seeding); assay type: in vivo; conditions: 120 g/10a active ingredient, evaluated 14 days after treatment
readout kind: herbicidal rate, Chenopodium album (%)
Lab book: enter the figure in %, no units written.

These solved cases illustrate the format of a correct answer.
* Cc1c(Cc2ccccc2N(S(C)(=O)=O)S(=O)(=O)C(F)(F)F)c(=O)on1CC(C)(C)C [Compound 1-893] | 90
* Cc1c(Cc2ccccc2N(S(=O)(=O)C(F)(F)F)S(=O)(=O)C(F)(F)F)c(=O)on1CCCc1ccccc1 [Compound 1-1048] | 40
* Cc1c(Cc2ccccc2NS(=O)(=O)C(F)(F)F)c(=O)on1C1CCCCC1 [Compound 1-142] | 90
* CCC(CC)n1oc(=O)c(Cc2ccccc2N(C(C)=O)S(=O)(=O)C(F)(F)F)c1C [Compound 1-295] | 90
* Cc1c(Cc2ccccc2NS(=O)(=O)C(F)(F)F)c(=O)on1CC(C)(C)C [Compound 1-106] | 90

# query: herbicidal rate, Chenopodium album of entry C=CCOC(=O)N(c1ccccc1Cc1c(C)n(C(C)CC)oc1=O)S(=O)(=O)C(F)(F)F (stereo not shown) [Compound 1-706] 90

# query: herbicidal rate, Chenopodium album of entry CCC(CC)n1oc(=O)c(Cc2ccccc2N(S(=O)(=O)C(F)(F)F)S(=O)(=O)C(F)(F)F)c1C [Compound 1-965] 100
